- assay-summary: xn = mol fraction of the nth substance listed, in the solute-free solvent
- assay-conditions: 293.15 K; x2 = 0.5
Items are presented alongside their recorded solubility (g/100 g solution).
Answer with the value's number alone.

Example molecules with recorded solubility (g/100 g solution):
CCCCN1CCCCC1C(=O)Nc1c(C)cccc1C.Cl.O (stereo unspecified) + CO + O | 4.08
CC1(C)SC2C(NC(=O)C(NC(=O)N3CCNC3=O)c3ccccc3)C(=O)N2C1C(=O)O (stereo unspecified) + CCO + CC(C)O | 0.279
O=c1ccc2ccccc2o1 + CC(C)=O + O | 38.5
CCCCN1CCCCC1C(=O)Nc1c(C)cccc1C.Cl.O (stereo unspecified) + CCO + O | 2.81
O=c1ccc2ccccc2o1 + CO + O | 6.41

Moving on to the next molecule.
Please report solubility (g/100 g solution) for the following molecule: CCOC(=O)C1=CC2(CC)CCCN3CCc4c(n1c1ccccc41)C32 (stereo unspecified) + CCO + O
0.301
